Molecular target: GST-TMEM106B (truncated, comprising amino acids 122-210 of SEQ ID NO:1) (Homo sapiens, UniProt Q9NUM4)
Sequence (Q9NUM4 122-210): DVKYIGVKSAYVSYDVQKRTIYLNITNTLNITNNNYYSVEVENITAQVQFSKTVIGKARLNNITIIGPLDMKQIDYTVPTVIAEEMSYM
Assay: Pre-mix epitope binning of anti-TMEM106B antibodies (Carterra / Lake Pharma)
Assay type: binding
Set-up: key: Bin 1: competes for binding to the same or overlapping TMEM106B region as the TM1, TM17, TM22, TM26, TM79, and/or TM82 antibodies; Bin 2: competes for binding to the same or overlapping TMEM106B region as the TM3, TM9, TM10, TM11, TM12, TM13, TM18, TM19, TM21, TM24, TM25, TM32, TM35, TM37, TM42, TM45, TM48, TM54, TM59, TM60, TM61, and/or TM76 antibodies; Bin 3: competes for binding to the same or overlapping TMEM106B region as the TM7, TM15, TM83, and/or TM84 antibodies; Bin 4: competes for binding to the same or overlapping TMEM106B region as the TMS, TM28, TM29, TM30, TM63, TM64, TM72, TM78, TM80, TM86, and/or TM88 antibodies; Bin 5: does not bind to a truncated TMEM106B comprising amino acids 122-210 of SEQ ID NO:1
Settings: competition for binding to truncated GST-TMEM106B (amino acids 122-210)
measured endpoint: epitope bin

# molecule, test result
measured = [
    ("TM-21: anti-TMEM106B monoclonal antibody; CDR-H1-3 SEQ ID NO: 18, 54, 97; CDR-L1-3 SEQ ID NO: 137, 168, 201 (antibody, V domains shown) VH: EVQLVESGGGLVKPGGSLKLSCAASGFTFSNYAMSWVRETPEKRLEWVAFISDGGGYIYYADNVKDRFTISRDNAKNNLYLQMRHLKSEDTAMYYCARDGGTGFTYWGQGTLVTVSV VL: DIVMTQAAFSNPVTLGTSASISCRSSKSLLHSNGITYLFWYLQKPGQSPQLLIYQMSNLASGVPDRFSSSGSGTDFTLRISRVEAEDVGVYYCVQNLELPYTFGGGTKLEIK", "Bin 2"),
]
